Give measured relative viability for each item. Keep answers brief.
# System: A-427
# METHOD: relative viability (nuclei count vs DMSO), 5 days (fraction); higher = more cells survive
# CONDITION: first compound 0.1 µM
Could you respond with only the numeric value?

Looking up O=c1cc(N2CCOCC2)oc2c(-c3cccc4c3sc3ccccc34)cccc12 + CC1(C)CCC(c2ccc(Cl)cc2)=C(CN2CCN(c3ccc(C(=O)NS(=O)(=O)c4ccc(N[C@H](CCN5CCOCC5)CSc5ccccc5)c(S(=O)(=O)C(F)(F)F)c4)cc3)CC2)C1 [Navitoclax] (partner 0.5 µM) , I found its relative viability recorded as 0.956

For record CCN(CC)CCCCNc1ncc2cc(-c3cc(OC)cc(OC)c3)c(NC(=O)NC(C)(C)C)nc2n1 + Cc1nc(NC(=O)N2CCC[C@H]2C(N)=O)sc1-c1ccnc(C(C)(C)C(F)(F)F)c1 [Alpelisib] (partner 2 µM) the listed relative viability is 1.1

====

# Tested on: HARA
# METHOD: relative viability (nuclei count vs DMSO), 5 days (fraction); higher = more cells survive
# CONDITION: first compound 0.01 µM
Rule: relative viability below 0.5 gives criterion met, anything at or above gives criterion not met.

Regarding CCN(CC)CCCCNc1ncc2cc(-c3cc(OC)cc(OC)c3)c(NC(=O)NC(C)(C)C)nc2n1 + COc1cc2c(Oc3ccc(NC(=O)C4(C(=O)Nc5ccc(F)cc5)CC4)cc3F)ccnc2cc1OCCCN1CCOCC1 [Foretinib] (partner 0.25 µM) , kindly confirm whether its relative viability is beneath 0.5.
criterion not met

Hello, is relative viability of the following molecule strictly smaller than 0.5? O=c1cc(N2CCOCC2)oc2c(-c3cccc4c3sc3ccccc34)cccc12 + Cc1nc(NC(=O)N2CCC[C@H]2C(N)=O)sc1-c1ccnc(C(C)(C)C(F)(F)F)c1 [Alpelisib] (partner 2 µM)
criterion not met

Here's an entry: O=c1cc(N2CCOCC2)oc2c(-c3cccc4c3sc3ccccc34)cccc12 + CS(=O)(=O)CCNCc1ccc(-c2ccc3ncnc(Nc4ccc(OCc5cccc(F)c5)c(Cl)c4)c3c2)o1 [Lapatinib] (partner 2 µM) . Is its relative viability below 0.5?
criterion not met

Answer whether the molecule O=c1cc(N2CCOCC2)oc2c(-c3cccc4c3sc3ccccc34)cccc12 + CC(=O)c1c(C)c2cnc(Nc3ccc(N4CCNCC4)cn3)nc2n(C2CCCC2)c1=O [Palbociclib] (partner 0.5 µM) has relative viability strictly less than 0.5
criterion met

# check: relative viability < 0.5 for O=c1cc(N2CCOCC2)oc2c(-c3cccc4c3sc3ccccc34)cccc12 + O=C(CCCCCCC(=O)Nc1ccccc1)NO [Vorinostat] (partner 1 µM)
criterion met

In the record for CCN(CC)CCCCNc1ncc2cc(-c3cc(OC)cc(OC)c3)c(NC(=O)NC(C)(C)C)nc2n1 + Nc1nc2[nH]cc(CCc3ccc(C(=O)N[C@@H](CCC(=O)O)C(=O)O)cc3)c2c(=O)[nH]1 [Pemetrexed] (partner 0.2 µM) , is relative viability less than 0.5?
criterion met

# strict comparison: is reported relative viability < 0.5? input = CCN(CC)CCCCNc1ncc2cc(-c3cc(OC)cc(OC)c3)c(NC(=O)NC(C)(C)C)nc2n1 + C[C@@H](Oc1cc(-c2cnn(C3CCNCC3)c2)cnc1N)c1c(Cl)ccc(F)c1Cl [Crizotinib] (partner 1 µM)
criterion not met

Just wondering, is relative viability of O=c1cc(N2CCOCC2)oc2c(-c3cccc4c3sc3ccccc34)cccc12 + C[C@]1(O)C[C@@H](c2nc(-c3ccc4ccc(-c5ccccc5)nc4c3)c3c(N)nccn32)C1 [Linsitinib] (partner 1 µM) below 0.5?
criterion not met
